B1: tRNA (parent)
chain: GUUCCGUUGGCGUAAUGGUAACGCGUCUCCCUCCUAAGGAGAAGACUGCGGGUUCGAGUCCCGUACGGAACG

Variants of: B1
Run description: yeast fitness, log relative to wild type (ln ratio); higher = fitter; tRNA-Arg(CCU), competitive growth, 37 C, 1 M NaCl
Metric: yeast fitness (ln)
Answer using only a numeral; do not append any unit.

Task: Dear colleague, I am looking for the recorded yeast fitness (ln) of the following variant: A43C C46U A69G A70U
Output: -0.133

Task: Also need U2C C27U C66U A70U , thanks.
Output: -0.113

Task: One more variant: U2C G6U C27U A43C C66U A70U C71U
Output: -0.363
